TEST_DETAILS: in vitro
CONDITION_DESCRIPTION: rat
pIC50: −log10 of the molar value. Structures can show the parent of a compound that is named as a salt.
pIC50 by entry:

Example entries begin here.
[[record]]
compound = "CCCCC(=O)O[C@]1(C(=O)CO)[C@@H](C)C[C@H]2[C@@H]3CCC4=CC(=O)C=C[C@]4(C)[C@@]3(F)[C@@H](O)C[C@@]21C [Betamethasone valerate, reference compound]"
observed = "< 4.70"

[[record]]
compound = "COc1ccc(O)cc1 [Mequinol, reference compound]"
observed = "< 4.70"

[[record]]
compound = "CC(=O)O[C@H]1C[C@@]2(C)[C@@H](C[C@@H](O)[C@H]3[C@@]4(C)CC[C@@H](O)[C@@H](C)[C@@H]4CC[C@@]32C)/C1=C(\\CCC=C(C)C)C(=O)O [Fusidic acid, reference compound]"
observed = "< 4.70"

[[record]]
compound = "Cc1cc(-n2c(=O)[nH]c(=O)n(C)c2=O)ccc1Oc1ccc(SC(F)(F)F)cc1 [Toltrazuril, reference compound]"
observed = "< 4.70"


# lookup: pIC50 of COC(=O)C(c1ccccc1)C1CCCCN1 (stereo not drawn) [Methylphenidate hydrochloride, reference compound]
< 4.70

# lookup: pIC50 of CC(=O)OCC(=O)[C@@]12N=C(C)O[C@@H]1C[C@H]1[C@@H]3CCC4=CC(=O)C=C[C@]4(C)[C@H]3[C@@H](O)C[C@@]12C [Deflazacort, reference compound]
< 4.70

Recorded values, source patent US20210330611A1.
